For each of the compounds below, state its composite z-score.
Test: probe aDKK1 binding to arrayed compounds – biochemical, biotinylated probe, 635/667 nm fluorescence, primary screen (AID 1099);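 note: score merges 667nm spot fluorescence with signal to noise across triplicate slides; reference of the scale not given here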
Conditions: small-molecule microarray, higher = more signal

> print(dat)
                                   compound  testresult
1  C=C(C(=O)CC[C@@H](OC(=O)c1cccnc1)c1ccc(CO)o1)C(C)C      -0.174
2                     O=c1cccc(-c2ccccc2)o1      -0.196

# evaluate next
Exercise: Note composite z-score for the compound shown: C=C(C)[C@@H]1CC=C(C(O)C2C=CC3C(=O)N(Cc4ccccc4)C(=O)C3N2n2cnnc2)CC1 (stereo partly drawn)
Key: 0.546

###

Molecular target: Fibroblast growth factor 10 (Homo sapiens)
Assay: compounds binding fibroblast growth factor 10 – biochemical, small-molecule microarray, 635 nm fluorescence, primary screen (AID 1102)
Settings: FGF10 binding, fluorescence 635 nm, higher = more signal
Decision: composite z-score >= 1 yields fulfilled, all other cases yield not fulfilled.

compound	testedSystem	qualitativeLabel
O=C(NCc1ccccc1)[C@@H]1c2ccccc2C(=O)N(C2CCCCC2)[C@H]1c1ccc(CO)cc1	Fibroblast growth factor 10 (Homo sapiens)	not fulfilled
COc1cc(NN2C(C(O)c3ccccc3)C=CC3C(=O)N(c4ccccc4)C(=O)C32)cc(OC)c1OC (configuration not stated)	Fibroblast growth factor 10 (Homo sapiens)	fulfilled
C=CCOC(=O)[C@@H]1[C@H]2C(=O)O[C@H](c3ccccc3)[C@H](c3ccccc3)N2[C@H](c2ccc(OCCOC(=O)[C@H]3C[C@H]4C(=O)N[C@@H](Cc5ccccc5)C(=O)N4[C@H]3c3ccc(O)cc3)cc2)[C@@]12C(=O)Nc1ccc(I)cc12	Fibroblast growth factor 10 (Homo sapiens)	fulfilled
CO[C@H]1O[C@H](CO)[C@@H](OC(=O)Nc2ccccc2-c2ccccc2)[C@H](OC(=O)Nc2ccccc2-c2ccccc2)[C@H]1OC(=O)Nc1ccccc1-c1ccccc1	Fibroblast growth factor 10 (Homo sapiens)	fulfilled
[N-]=[N+]=NCc1ccccc1C[C@]1(C(N)=O)N=C(c2ccc(OCCCO)cc2)O[C@H]1c1ccccc1N=[N+]=[N-]	Fibroblast growth factor 10 (Homo sapiens)	not fulfilled
Cc1ccc(S(=O)(=O)N2CC(C(=O)O)=CCC2c2ccccc2)cc1 (configuration not stated)	Fibroblast growth factor 10 (Homo sapiens)	not fulfilled
O=C1O[C@H](c2ccccc2)[C@H](c2ccccc2)N2[C@H]1[C@@H](C(=O)NC[C@H](O)c1ccccc1)[C@]1(C(=O)Nc3ccc(C#CC4(O)CCCCCC4)cc31)[C@H]2c1ccccc1OCCO	Fibroblast growth factor 10 (Homo sapiens)	fulfilled
[N-]=[N+]=NCc1ccccc1[C@@H]1OC(c2ccc(OCCCO)cc2)=N[C@]1(Cc1ccccc1N=[N+]=[N-])C(N)=O	Fibroblast growth factor 10 (Homo sapiens)	fulfilled

Exercise: Test whether the compound CO[C@H]1O[C@H](CO)[C@@H](OC(=O)Nc2ccc3c(c2)OCO3)[C@H](OC(=O)Nc2ccc3c(c2)OCO3)[C@H]1OC(=O)Nc1ccc2c(c1)OCO2 records composite z-score of 1 or higher.
Key: fulfilled

Exercise: Test whether the compound CN1C(=O)C2C=CC(C(O)c3ccc(Br)cc3)N(Nc3ccccc3)C2C1=O (configuration not stated) records composite z-score of 1 or higher.
Key: not fulfilled

Exercise: Test whether the compound C=CC[C@]1(C(=O)NCCN2CCOCC2)N=C(c2ccc(OCCCO)cc2)O[C@H]1c1ccccc1N=[N+]=[N-] records composite z-score of 1 or higher.
Key: fulfilled

Exercise: Test whether the compound COc1ccc([Si](C)(C)[C@H]2[C@H](CCO)O[C@@]3(C(=O)N(Cc4ccccc4)c4ccc(N5C(=O)COc6ccccc65)cc43)[C@@H]2C)cc1 records composite z-score of 1 or higher.
Key: not fulfilled

Exercise: Test whether the compound CC(C)(C)OC(=O)CC[C@@]1(C(=O)N2CCOCC2)N=C(c2ccc(OCCCO)cc2)O[C@@H]1c1ccccc1N=[N+]=[N-] records composite z-score of 1 or higher.
Key: fulfilled

###

Assay: binders from COS7 lysate, DM2A8 probe, primary screen, torsin A project, cell lysate, small-molecule microarray, fluorescence 635/667 (AID 1065)
Conditions: higher = more signal, COS7 lysate expressing mutant human TOR1A
Decision: composite z-score >= 0.4 yields 1 (yes), all other cases yield 0 (no).

Before answering, review these 6 worked examples.
moleculeSmiles	qualitativeLabel
CC(C)NC(=O)[C@@]1(c2ccc([N+](=O)[O-])cc2)CC(=O)N(C(C)C)[C@@H]1c1ccc(CO)cc1	0 (no)
O=C1O[C@H](c2ccccc2)[C@H](c2ccccc2)N2[C@H]1[C@@H](C(=O)NC[C@H](O)c1ccccc1)[C@]1(C(=O)Nc3ccc(C#CC4=CCCCC4)cc31)[C@H]2c1ccc(O)cc1	1 (yes)
CCCNC(=O)[C@@]1(C)c2ccccc2C(=O)N(Cc2cc(C(F)(F)F)cc(C(F)(F)F)c2)[C@H]1c1ccc(CO)cc1	0 (no)
COC(=O)[C@@]1(Cc2ccc(F)cc2)[C@H]2c3cc(C(=O)N(C)C)n(CCc4c[nH]c5ccc(OC)cc45)c3C[C@H]2CN1C(=O)c1ccccc1	1 (yes)
C[N+](C)(C)CCCC[C@@H]1NC(=O)[C@@H]2C[C@H](C(=O)NCCCCCCNC(=O)CS)[C@H](c3cccc(OCCO)c3)N2C1=O	1 (yes)
[N-]=[N+]=NCc1ccccc1C[C@@]1(C(=O)NCc2ccccc2)N=C(c2ccc(OCCCO)cc2)O[C@@H]1c1ccccc1CN=[N+]=[N-]	1 (yes)

Turning to the following compound.
Exercise: Test whether the compound CCCCCCC#C[Si](O[C@H](c1ccccc1)c1cn([C@H](C)c2ccccc2)nn1)(C(C)C)C(C)C records composite z-score of 0.4 or higher.
Key: 0 (no)

###

Assay: JC-1 mitochondrial signal, unstimulated adipocytes – cell-based, JC-1 fluorescence, 3T3-L1 adipocytes, 24 h, 100 nL compound, profiling panel (AID 1168); note: test concentration not given here
Settings: JC-1 mitochondrial fluorescence, higher = more signal, called active from +8 up or from −8 down
Activity calls are given as the source filed them.
observationType: z-score

compound	z-score
[N-]=[N+]=Nc1ccccc1[C@H]1OC(c2ccc(OCCCO)cc2)=N[C@@]1(CCS(=O)(=O)c1ccccc1)C(=O)N1CCOCC1	-0.392 (inactive)
O=C1OCC=C[C@H]2OC34C=CCN(CCN5CCOCC5)C(=O)[C@H]3N(CCCCCCO)C(=O)[C@@H]4[C@@H]12 (stereo partly specified)	-0.199 (inactive)
C=C(COC)/C(=C/C[C@H](OC(C)=O)c1ccccc1OCCO)c1cnc2ccccc2c1	-1.34 (inactive)

Dear reader, for each entry below, please note its z-score.
1. COc1ccc(C#Cc2ccc3c(c2)[C@]2(C(=O)N3)[C@H](C(=O)N3CCN(c4ncccn4)CC3)[C@H]3C(=O)O[C@H](c4ccccc4)[C@H](c4ccccc4)N3[C@@H]2c2ccc(O)cc2)cc1
2. CC(C)C(CO)N1C(=O)[C@@H]2[C@H]3C(=O)OCC=C[C@H]3OC23C=CCN(c2ccc4ccccc4c2)C(=O)[C@@H]13 (stereo partly specified)
3. C[N+](C)(C)CCCC[C@@H]1NC(=O)[C@@H]2C[C@H](C(=O)NCCCCCCNC(=O)CS)[C@H](c3cccc(OCCO)c3)N2C1=O
4. CC(C)(C)OC(=O)CC[C@@]1(C(=O)N2CCOCC2)N=C(c2ccc(OCCCO)cc2)O[C@@H]1c1ccccc1N=[N+]=[N-]

Key:
1.08 (inactive)
0.106 (inactive)
0.215 (inactive)
5.5 (inactive)

Dear reader, for each entry below, please note its z-score.
1. Cc1ccc(N2C(=O)c3ccccc3[C@@H](C(=O)NCC(C)C)[C@@H]2c2ccc(CO)cc2)nc1
2. COC(=O)[C@@]1(Cc2ccc(F)cc2)[C@H]2c3cc(C(=O)N(C)C)n(CCCNc4ccc(C(F)(F)F)cc4Cl)c3C[C@H]2CN1C(=O)c1ccccc1
3. CCCCC(=O)N(Cc1ccccc1F)[C@@H]1CC(C(=O)NCCO)=C[C@H](Oc2c(I)cc(CO)cc2OC)[C@H]1O
4. [N-]=[N+]=NCc1ccccc1C[C@]1(C(N)=O)N=C(c2ccc(OCCCO)cc2)O[C@H]1c1ccccc1N=[N+]=[N-]
5. C=C(/C(=C/C[C@@H](OC(=O)c1ccncc1)c1ccc(CO)o1)c1cc(C(=O)OC)ccc1OC)C(C)C
6. Cc1ccc(S[C@]2(C(=O)NCCCN(C)C)CC(=O)N(Cc3ccccc3)[C@@H]2c2ccc(CO)cc2)cc1
7. C=CCNC(=O)[C@H]1[C@@H]2C(=O)O[C@@H](c3ccccc3)[C@@H](c3ccccc3)N2[C@@H](c2ccc(O)cc2)[C@]12C(=O)Nc1ccc(C#Cc3ccc(OC)cc3)cc12
8. Cc1ccc(S[C@]2(C(=O)NCC(F)(F)F)CC(=O)N(C3Cc4ccccc4C3)[C@@H]2c2ccc(CO)cc2I)cc1

Key:
1.09 (inactive)
0.391 (inactive)
-0.916 (inactive)
-1.38 (inactive)
-0.369 (inactive)
-0.946 (inactive)
-0.0338 (inactive)
-0.131 (inactive)

Exercise: Note z-score for the compound shown: CC1CC/C=C\[C@H]2OC34C=CCN(Cn5nnc6ccccc65)C(=O)[C@H]3N(CCCO)C(=O)[C@@H]4C2C(=O)O1 (stereo partly specified)
Key: -0.382 (inactive)
